test-system: D(3) dopamine receptor (Homo sapiens, UniProt P35462)
Sequence (P35462 whole entry): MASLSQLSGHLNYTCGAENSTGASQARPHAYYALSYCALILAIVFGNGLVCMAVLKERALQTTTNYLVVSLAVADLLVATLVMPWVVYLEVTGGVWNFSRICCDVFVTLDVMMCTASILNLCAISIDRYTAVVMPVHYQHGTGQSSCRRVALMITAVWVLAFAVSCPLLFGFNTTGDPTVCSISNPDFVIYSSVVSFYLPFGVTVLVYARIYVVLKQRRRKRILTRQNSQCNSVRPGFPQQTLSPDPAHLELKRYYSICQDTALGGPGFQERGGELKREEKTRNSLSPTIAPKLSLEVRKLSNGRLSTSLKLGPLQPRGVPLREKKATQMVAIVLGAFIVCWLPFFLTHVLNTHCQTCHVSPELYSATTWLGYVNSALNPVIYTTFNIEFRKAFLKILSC
protocol-summary: Tested for the binding constant against cloned human Dopamine receptor D3 in HEK cells by displacing [3H]spiperone
Type: cell-based, HEK293
pKi: −log10 of the molar value.
Items are presented alongside their recorded pKi.
test-readout: pKi

compound: N#CCCCN(CCCN1CCN(c2ccccc2)CC1)C1CCc2ccc(O)cc2C1 (centres undefined)
test-readout: pKi
number: 7.30
//
compound: O=C(NCCCCN(CCCN1CCN(c2ccccc2)CC1)C1CCc2ccc(O)cc2C1)c1ccccc1 (centres undefined)
test-readout: pKi
number: 6.12
//
compound: CCCN(CCN1CCN(c2cccc(Cl)c2Cl)CC1)C1CCc2ccc(O)cc2C1 (centres undefined)
test-readout: pKi
number: 8.95
//
compound: O=C(NCCN(CCCN1CCN(c2ccccc2)CC1)C1CCc2ccc(O)cc2C1)c1ccccc1 (centres undefined)
test-readout: pKi
number: 7.25

---

Items are presented alongside their recorded Ki.
test-system: D(2) dopamine receptor (Homo sapiens, UniProt P14416)
Sequence (P14416 whole entry): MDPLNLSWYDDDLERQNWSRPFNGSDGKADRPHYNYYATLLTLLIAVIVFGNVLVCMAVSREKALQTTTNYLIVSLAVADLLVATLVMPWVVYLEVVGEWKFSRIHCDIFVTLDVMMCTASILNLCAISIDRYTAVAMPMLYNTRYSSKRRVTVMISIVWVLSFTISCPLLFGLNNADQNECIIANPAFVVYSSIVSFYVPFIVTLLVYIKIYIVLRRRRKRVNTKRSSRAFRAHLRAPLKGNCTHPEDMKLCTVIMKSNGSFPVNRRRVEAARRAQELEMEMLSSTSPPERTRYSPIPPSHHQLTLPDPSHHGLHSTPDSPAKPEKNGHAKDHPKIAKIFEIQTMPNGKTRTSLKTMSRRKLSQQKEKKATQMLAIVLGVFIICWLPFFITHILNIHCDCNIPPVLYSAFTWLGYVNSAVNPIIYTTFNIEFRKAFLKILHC
protocol-summary: Tested for the binding constant against cloned human Dopamine receptor D2L in HEK cells by displacing [3H]spiperone

compound: O=C(NCCCCN(CCCN1CCN(c2ccccc2)CC1)C1CCc2ccc(O)cc2C1)c1ccccc1 (centres undefined)
Ki / nM: 782

compound: CCCN(CCN1CCN(c2cccc(Cl)c2Cl)CC1)C1CCc2ccc(O)cc2C1 (centres undefined)
Ki / nM: 27.4

compound: N#CCCCN(CCCN1CCN(c2ccccc2)CC1)C1CCc2ccc(O)cc2C1 (centres undefined)
Ki / nM: 622

compound: O=C(NCCN(CCCN1CCN(c2ccccc2)CC1)C1CCc2ccc(O)cc2C1)c1ccccc1 (centres undefined)
Ki / nM: 354
